Test system: DU-145 prostate
Assay details: NCI tumour cell line growth inhibition, 48 h
Property name: TGI

# annotated cases, reported TGI shown
1) COc1ccc(C(=O)c2nc3ccccc3n2CC(=O)c2ccc(Cl)cc2)cc1
> 100 µM
2) c1ccc([P+](CCCCCCCC[P+](c2ccccc2)(c2ccccc2)c2ccccc2)(c2ccccc2)c2ccccc2)cc1
> 100 µM
3) O=C1CS(=O)(=O)C(c2cccc(Oc3ccccc3)c2)N1c1cc(Cl)ccc1Cl (configuration not stated)
43.3 µM

Batch: TGI for all items listed.
1. Clc1ccc(/C(=C\c2ccccc2)Cn2ccnc2)cc1
2. Cc1cc(NS(=O)(=O)c2ccc(NC(NC(=O)C(C(F)(F)F)C(F)(F)F)(C(F)(F)F)C(F)(F)F)cc2)no1
3. C/C(=N\Nc1nc2ccccc2s1)c1ccc2ccccc2n1
4. COc1nc2c(N3CCCC3)nc(N3CCNCC3)nc2nc1NCc1ccccc1
5. [2H]c1nc(=Nc2cc(NC(=O)C=C)c(N(C)CCN(C)C)cc2OC)[nH]c(-c2cn(C([2H])([2H])[2H])c3ccccc23)c1[2H]

1. 58.3 µM
2. > 100 µM
3. > 100 µM
4. 12.3 µM
5. 11.8 µM

Quick one: give me TGI for each item below, same order please.
1. O=C1c2cccc(O)c2C(=O)c2c(OC3OC(CO)C(O)C(O)C3O)cccc21 (configuration not stated)
2. COc1ccc2c(NCCCCCCNc3c4ccccc4nc4cc(OC)ccc34)c3ccccc3nc2c1
3. COP(=O)(OC)C(Nc1ccc(Cc2ccc(NC(c3ccco3)P(=O)(OC)OC)cc2)cc1)c1ccco1 (configuration not stated)
4. O=C1OC(c2ccccc2)N(C(=O)c2ccccc2)C1Cc1ccc(OCc2ccccc2)cc1 (configuration not stated)
5. CCn1c(-c2nonc2N)nc2ccncc21
6. Cc1cc(C)nc(NS(=O)(=O)c2ccc(NC(=O)c3cccc4c(NNc5ccc(S(=O)(=O)N=C(N)N)cc5)c5ccccc5nc34)cc2)n1
7. Cc1cc2c(cc1Cl)S/C(=C/C(=O)O)C(Nc1cccc3nsnc13)=NS2(=O)=O

1: > 100 µM; 2: 1.47 µM; 3: > 100 µM; 4: > 100 µM; 5: > 25 µM; 6: > 50 µM; 7: > 57.3 µM

Each molecule below has a recorded value; state its TGI.
1. COc1ccc(Nc2nccc(N3CCN(c4c5ccc(Cl)cc5nc5ccc(OC)cc45)CC3)n2)cc1
2. C=CC(=O)N1C/C(=C\c2ccc(Cl)cc2)C(=O)/C(=C/c2ccc(Cl)cc2)C1
3. C=C1C(=O)C23C(O)C1CC[C@H]2C12CCCC(C)(COC(C)=O)[C@H]1[C@H](O)[C@]3(O)OC2 (some centres not stated)
4. CN(C)CCCNC(=O)c1c(O)c2ccccc2n(C)c1=O
5. CC1(C)OC2COC3([C@@H]4OC(C)(C)O[C@@H]4CO)OC(C)(C)OC3C2O1 (some centres not stated)
6. COc1cccc(COc2cc(-n3cnc4ccccc43)sc2C(N)=O)c1
7. O=[N+]([O-])c1ccc2c(c1)c(N=NC(=S)Nc1ccc(Cl)cc1)c(O)n2CN1CCOCC1

1: > 100 µM; 2: 3.66 µM; 3: 16.2 µM; 4: > 100 µM; 5: > 100 µM; 6: > 25 µM; 7: 22.2 µM

The origin of these recorded values is PubChem BioAssay (NCI).
